assay: In vitro rat SD liver microsomal stability; format: in vitro ADME
Note to self: use TRUE only for clint readings below 100 µL/min/mg; a reading exactly at 100 µL/min/mg still gets FALSE.

Consider the worked cases shown below.
CC(C)[C@H](Nc1ncnc2[nH]ccc12)c1ccc2c(c1)S(=O)(=O)CCC2 [ASAP-0008674] = FALSE
Cn1ncc(-c2cc3c(N[C@@H](c4ccc5c(n4)OCCO5)C(C)(C)C)ncnc3[nH]2)c1C#N [ASAP-0011221] = FALSE
COc1ccc([C@H](Cc2nnn[nH]2)NC(=O)c2ncnc3[nH]ccc23)cc1 [ASAP-0015381] = TRUE
CC(C)[C@@H](Nc1ncnc2[nH]c(-c3cnn(C)c3C#N)cc12)c1ccc2c(n1)OCCO2 [ASAP-0010716] = FALSE
CC(C)[C@H](Nc1ncnc2[nH]c(-c3cnn(C)c3C#N)cc12)c1ccc2c(n1)OCCO2 [ASAP-0010715] = FALSE
CNCc1cc(-c2cc3c(N[C@@H](c4ccc5c(c4)S(=O)(=O)CCC5)C(C)C)ncnc3[nH]2)co1 [ASAP-0011176] = TRUE

Kindly consider the entry below.
## Input Determine if C[C@H](C(=O)O)[C@@H](NC(=O)c1ncnc2[nH]ccc12)c1ccc(Br)cc1 [ASAP-0014722] shows clint strictly lower than 100 µL/min/mg.
## Output TRUE

====

biological target: SARS-CoV-2 nsp3-mac1 (Severe acute respiratory syndrome coronavirus 2, UniProt P0DTD1); assay: biochemical; type: biochemical; settings: SARS-CoV-2 nsp3 macrodomain TR-FRET single point; concentration 99.5 uM; n=2
OBSERVABLE: perc_inhibition_mean (%)
Kindly answer with a numeric value in %, unit omitted.

## Input Which perc_inhibition_mean is reported for this compound? O=C(N[C@@H]1CCCNC1=O)c1cnn2ccc(C3CCN(C(=O)c4ccccc4)CC3)cc12 [ASAP-0000347]
## Output -4.869

## Input Value lookup for perc_inhibition_mean; key = Cn1cc(Br)c(CNC(=O)c2ccc(NC(=O)Nc3ccccc3)cc2)n1 [ASAP-0000340]
## Output 1.196

## Input Sample O=C(c1cnc[nH]1)N1CCC(c2ccn3ncc(C(=O)N4CCCCC4)c3c2)CC1 [ASAP-0000345] — what was its perc_inhibition_mean?
## Output 35.337

## Input Returns the measured perc_inhibition_mean for the input compound. Input: C[C@]1(C(=O)N(CCC(=O)N2CCNCC2)Cc2cccc(Cl)c2)CCCN1 [ASAP-0000312]
## Output 2.129

## Input Bench note: what perc_inhibition_mean did O=C(c1cc(O)ccn1)N1CCC(c2ccn3ncc(C(=O)N4CCCCC4)c3c2)CC1 [ASAP-0000329] show?
## Output 32.165

## Input Entry C[C@@H]1[C@H](O)CCCN1C(=O)c1ccc(NC(=O)Nc2ccccc2)cc1 [ASAP-0000302] : reported perc_inhibition_mean = ?
## Output -2.724

## Input Which value of perc_inhibition_mean has been reported for O=C(CCN(Cc1cccc(Cl)c1)C(=O)C1(F)CCCCC1)N1CCNCC1 [ASAP-0000298] in the records?
## Output 0.185

## Input Looking for the measured perc_inhibition_mean of Cc1n[nH]cc1CN(C)C(=O)c1ccc(NC(=O)Nc2ccccc2)cc1 [ASAP-0000300] , can you help?
## Output -0.031

## Input Give its perc_inhibition_mean value. Item: O=C(N[C@H]1CCC[C@H]1C(=O)O)c1cnn2ccc(C3CCN(C(=O)c4ccccc4)CC3)cc12 [ASAP-0000350]
## Output 73.53
